Measured values drawn from patent US12673945B2 for this set.

Tested on: TCCS cells
Assay info: human CML cell proliferation inhibition
Format: cell-based
Cond: 72 hours, Cell Counting Kit-8
Measure: GI50

GI50 reading for Cc1cc(F)c(C(=O)Nc2cc(Cn3ccnc3)cc(C(F)(F)F)c2)cc1C#Cc1cnc2c(Nc3cnn(C)c3)cccn12 [Example 73] : < 10 nM

GI50 reading for Cc1cc(F)c(C(=O)Nc2cc(CN3CCC(N(C)C)C3)cc(C(C)(C)C#N)c2)cc1C#Cc1cnc2c(Nc3cn[nH]c3)cccn12 (stereo not drawn) [Example 85] : < 10 nM

GI50 reading for Cc1cc(F)c(C(=O)Nc2cc(-c3cnn(C)c3)cc(C(F)(F)F)c2)cc1C#Cc1cnc2c(Nc3cn[nH]c3)cccn12 [Example 96] : 100 nM

GI50 reading for Cc1cc(F)c(C(=O)Nc2cc(CN3CCN(C(C)C)CC3)cc(C(C)(C)C#N)c2)cc1C#Cc1cnc2c(Nc3cnn(C)c3)cccn12 [Example 33] : < 10 nM

GI50 reading for Cc1cn(-c2cc(NC(=O)c3cc(C#Cc4cnc5c(Nc6cnn(C)c6)cccn45)c(C)cc3Cl)cc(C(F)(F)F)c2)cn1 [Example 14] : < 10 nM

GI50 reading for Cc1cc(F)c(C(=O)Nc2cc(N3CCN(C)C(=O)C3)cc(C(C)(C)C#N)c2)cc1C#Cc1cnc2c(Nc3cn[nH]c3)cccn12 [Example 82] : < 10 nM

----------
Assay info: oral pharmacokinetic test
Format: in vivo, SD rats
Cond: SD, plasma; rat, 10 mg/Kg PO, vehicle A (NMP:PEG400=5:95)
Measure: Cmax (ng/mL)
Reply numerically in ng/mL, unit not repeated.

Cmax reading for `Cc1cn(-c2cc(NC(=O)c3cc(C#Cc4cnc5c(Nc6cnn(C)c6)cccn45)c(C)cc3F)cc(C(C)(C)C#N)c2)cn1` : 2000

Cmax reading for Cc1cn(-c2cc(NC(=O)c3ccc(C)c(C#Cc4cnc5c(Nc6cnn(C)c6)cccn45)c3)cc(C(C)(C)C#N)c2)cn1 [Comparative Example 4, reference compound] : 169

----------
Exercise: state measured GI50 for each of the molecules provided.
Test system: KOPM28 cells
Assay info: human CML cell proliferation inhibition
Assay type: cell-based
Cond: 72 hours, Cell Counting Kit-8

Tested on KOPM28 cells, the item `Cc1cc(F)c(C(=O)Nc2cc(CN3CCN(CCO)CC3)cc(C(C)(C)C#N)c2)cc1C#Cc1cnc2c(Nc3cn[nH]c3)cccn12` showed GI50 equal to < 10 nM

Tested on KOPM28 cells, the item `Cc1cc(F)c(C(=O)Nc2cc(Cn3ccnc3)cc(C(C)(C)C#N)c2)cc1C#Cc1cnc2c(Nc3cnn(C)c3)cccn12` showed GI50 equal to < 10 nM

Tested on KOPM28 cells, the item `Cc1c(F)cc(C(=O)Nc2cc(Oc3ccncc3)cc(C(F)(F)F)c2)cc1C#Cc1cnc2c(Nc3cnn(C)c3)cccn12` showed GI50 equal to < 10 nM

Tested on KOPM28 cells, the item `Cc1cc(F)c(C(=O)Nc2cc(Cn3cncn3)cc(C(F)(F)F)c2)cc1C#Cc1cnc2c(Nc3cn[nH]c3)cccn12` showed GI50 equal to < 10 nM

Tested on KOPM28 cells, the item `Cc1cn(-c2cc(NC(=O)c3cc(C#Cc4cnc5c(Nc6cn[nH]c6)cccn45)c(C)cc3F)cc(C(C)(C)C#N)c2)cn1` showed GI50 equal to < 10 nM

Tested on KOPM28 cells, the item `Cc1cc(F)c(C(=O)Nc2ccc(CN3CCN(C)CC3)c(C(F)(F)F)c2)cc1C#Cc1cnc2c(Nc3cnn(C)c3)cccn12` showed GI50 equal to < 10 nM
